These entries and their values trace back to the supplement of paper PMC7877785.

Below: a set of entries, each annotated with reported self-splicing fitness (ln).
# Protocol Text: self-splicing fitness, log relative to wild type (ln ratio); higher = more splicing; Tetrahymena group I intron in knt gene, E. coli kanamycin selection, DiMSum; sequences stand for … in CUCUCU…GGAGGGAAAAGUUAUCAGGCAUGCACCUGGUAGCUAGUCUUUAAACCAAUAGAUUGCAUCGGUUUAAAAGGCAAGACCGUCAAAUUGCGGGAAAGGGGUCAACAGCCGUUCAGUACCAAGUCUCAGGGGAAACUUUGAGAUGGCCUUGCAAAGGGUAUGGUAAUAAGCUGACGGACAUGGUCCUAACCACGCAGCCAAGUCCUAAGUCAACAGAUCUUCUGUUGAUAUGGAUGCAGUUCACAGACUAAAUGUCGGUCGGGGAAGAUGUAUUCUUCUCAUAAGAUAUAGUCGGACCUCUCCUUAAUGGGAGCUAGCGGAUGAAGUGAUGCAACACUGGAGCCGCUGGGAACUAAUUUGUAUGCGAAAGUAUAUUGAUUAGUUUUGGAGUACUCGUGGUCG;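 further: selection with 25 µg/mL kanamycin versus none on LB agar overnight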
# Settings: 37 °C
Readout: self-splicing fitness (ln)

CAUUAGCAAUAUUACGCACG :: 0.325
ACAUAGCAAUAUUACGGGCG :: -1
UGCGAGCAAUAUUACGGCUU :: -2.61
UAACAGCAAUAUUACGCUAA :: -1.25
UUAGAGCAAUAUUACGAUCA :: -0.808
UCUAAGCAAUAUUACGGUCU :: -3.34
GGGCAGCAAUAUUACGUACC :: -1.39
CAGUAGCAAUAUUACGAUUU :: -1.45
AGGAAGCAAUAUUACGGACC :: 0.238
AUAAAGCAAUAUUACGCGGA :: 0.155
CUUGAGCAAUAUUACGGAUG :: -0.176
AUCGAGCAAUAUUACGGAGU :: -2.42
AUUUAGCAAUAUUACGCCCA :: -1.58
GUACAGCAAUAUUACGAGAC :: -2.5
UCAAAGCAAUAUUACGUUAU :: -3.37
AACAAGCAAUAUUACGAUCU :: -0.072
AAGAAGCAAUAUUACGCGAG :: -0.561
GCUGAGCAAUAUUACGGAUA :: -1.8
UUCAAGCAAUAUUACGGAGA :: -1.32
GCUUAGCAAUAUUACGAACC :: -0.336
AUUCAGCAAUAUUACGGGGC :: -2.99
UAGCAGCAAUAUUACGGCGA :: 0.939
GGUGAGCAAUAUUACGAUCU :: -0.809
UUAUAGCAAUAUUACGACAU :: -1.55
UUACAGCAAUAUUACGCCAG :: -1.05
CCCCAGCAAUAUUACGCAAU :: -1.34
AUGAAGCAAUAUUACGUUCG :: 0.464
CUUGAGCAAUAUUACGUAUA :: -2.96
GGCUAGCAAUAUUACGCAUU :: 0.553
CUCAAGCAAUAUUACGCGCU :: -3.39
CAGGAGCAAUAUUACGGUUA :: -3.41
AUCUAGCAAUAUUACGUUAU :: -1.46
GGCUAGCAAUAUUACGUAUA :: -0.659
GAUUAGCAAUAUUACGGAAG :: -2.18

* * *

Below: a set of entries, each annotated with reported self-splicing fitness (ln).
# Protocol Text: self-splicing fitness, log relative to wild type (ln ratio); higher = more splicing; Tetrahymena group I intron in knt gene, E. coli kanamycin selection, DiMSum; sequences stand for … in CUCUCU…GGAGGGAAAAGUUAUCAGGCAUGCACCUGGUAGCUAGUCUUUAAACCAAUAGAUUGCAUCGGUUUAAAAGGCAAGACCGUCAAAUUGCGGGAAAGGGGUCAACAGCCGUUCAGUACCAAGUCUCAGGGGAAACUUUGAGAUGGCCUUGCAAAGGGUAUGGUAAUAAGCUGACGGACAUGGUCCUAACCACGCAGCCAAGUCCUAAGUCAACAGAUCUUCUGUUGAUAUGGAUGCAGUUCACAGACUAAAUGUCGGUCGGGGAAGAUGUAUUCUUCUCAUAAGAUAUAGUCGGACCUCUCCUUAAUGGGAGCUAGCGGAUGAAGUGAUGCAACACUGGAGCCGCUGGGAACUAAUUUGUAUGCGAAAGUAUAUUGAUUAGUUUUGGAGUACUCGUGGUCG
# Settings: 37 °C
Readout: self-splicing fitness (ln)

CACAAGCAAUAUUACGGAUU :: -2.61
AACCAGCAAUAUUACGUGUG :: -0.463
AUACAGCAAUAUUACGCUUG :: -0.94
AUGGAGCAAUAUUACGUUAU :: -1.77
GUCCAGCAAUAUUACGUCAA :: -1.99
AUUUAGCAAUAUUACGCAGU :: -2.18
UCUUAGCAAUAUUACGACUA :: -2.26
CGCGAGCAAUAUUACGUAGC :: -2.5
AAAAAGCAAUAUUACGUUGA :: -1.48
UCAAAGCAAUAUUACGCGGU :: -2.97
GCAAAGCAAUAUUACGCGCG :: -0.161
AUGGAGCAAUAUUACGUUAG :: -2.49
CACAAGCAAUAUUACGCCUG :: -0.812
UCUGAGCAAUAUUACGGGCU :: -3.79
AACGAGCAAUAUUACGCUUG :: -2.99
AUAUAGCAAUAUUACGGGAG :: -1.59
UGCCAGCAAUAUUACGGAUC :: -1.13
AUCCAGCAAUAUUACGCCUC :: -1.06
CGUGAGCAAUAUUACGAUGC :: -2
UUUUAGCAAUAUUACGGGAU :: -1.48
GCCAAGCAAUAUUACGGAUC :: -0.179
CACUAGCAAUAUUACGACGU :: -1.8
AGAAAGCAAUAUUACGCUGU :: -1.98
GACCAGCAAUAUUACGUACG :: -0.696
GCUUAGCAAUAUUACGAAGG :: -0.64
GGUUAGCAAUAUUACGACGA :: 0.349
GCCAAGCAAUAUUACGGUGG :: -1.26
UCUGAGCAAUAUUACGUCUA :: -2.17
CGUUAGCAAUAUUACGCAGG :: -1.26
GCUGAGCAAUAUUACGAAUC :: -0.914
CUGUAGCAAUAUUACGUGGU :: -2.75
AGUUAGCAAUAUUACGAGUU :: -0.514
UUGCAGCAAUAUUACGCUUA :: -0.0443
CAGUAGCAAUAUUACGCUUC :: -2.74

* * *

# Protocol Text: self-splicing fitness, log relative to wild type (ln ratio); higher = more splicing; Tetrahymena group I intron in knt gene, E. coli kanamycin selection, DiMSum; sequences stand for … in CUCUCU…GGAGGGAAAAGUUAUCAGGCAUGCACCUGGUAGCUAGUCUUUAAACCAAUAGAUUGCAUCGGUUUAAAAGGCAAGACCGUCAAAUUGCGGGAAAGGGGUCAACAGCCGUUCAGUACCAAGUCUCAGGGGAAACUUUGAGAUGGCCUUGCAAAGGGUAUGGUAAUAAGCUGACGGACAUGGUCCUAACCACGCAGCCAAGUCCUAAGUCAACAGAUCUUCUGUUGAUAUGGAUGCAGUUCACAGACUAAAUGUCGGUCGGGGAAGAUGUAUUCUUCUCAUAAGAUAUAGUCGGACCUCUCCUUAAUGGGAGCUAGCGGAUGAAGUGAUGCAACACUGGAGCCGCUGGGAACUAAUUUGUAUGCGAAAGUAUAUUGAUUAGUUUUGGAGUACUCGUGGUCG
# Settings: 37 °C
Readout: self-splicing fitness (ln)

AUGGAGCAAUAUUACGCACG :: -1.26
GGCGAGCAAUAUUACGACUC :: 0.173
CGAUAGCAAUAUUACGUUUC :: -2.12
ACCGAGCAAUAUUACGCGGG :: -2.89
AGAAAGCAAUAUUACGCCGU :: -0.341
ACCCAGCAAUAUUACGAUAU :: -0.318
UGACAGCAAUAUUACGGACG :: 0.415
UGCUAGCAAUAUUACGGCAG :: -1.1
GAGCAGCAAUAUUACGUAUG :: -2.5
CUCGAGCAAUAUUACGUUAA :: -2.53
GAAGAGCAAUAUUACGGAUU :: -1.79
AAUAAGCAAUAUUACGGUUG :: -1.97
GCACAGCAAUAUUACGCGCA :: -0.327
CCUUAGCAAUAUUACGGUCA :: -3.63
ACACAGCAAUAUUACGAACU :: -0.493
UCACAGCAAUAUUACGUAAA :: -1.18
GCGAAGCAAUAUUACGAGGU :: -2.76
UAGCAGCAAUAUUACGAGUA :: -0.225
AAGAAGCAAUAUUACGAACG :: -0.286
GGCUAGCAAUAUUACGAACU :: 0.433
GCCGAGCAAUAUUACGAUUA :: -1.39
GCAUAGCAAUAUUACGCACU :: -0.277
GUUGAGCAAUAUUACGAGCA :: -1.71
CGCCAGCAAUAUUACGCAAC :: -3.44
GUUGAGCAAUAUUACGAGGG :: -2.67
ACCGAGCAAUAUUACGACGC :: -0.16
GCGGAGCAAUAUUACGGCAA :: -1.74
AGAUAGCAAUAUUACGUCUG :: -0.143
GAUCAGCAAUAUUACGUUAG :: -1.92
UUUCAGCAAUAUUACGCACA :: 0.127
AGUUAGCAAUAUUACGUUGA :: -2.02
GACUAGCAAUAUUACGAUAG :: -1.17
AAUCAGCAAUAUUACGGCCG :: 0.00722
UGCCAGCAAUAUUACGGGCC :: -1.73
AACGAGCAAUAUUACGCGGU :: -1.62
UAAGAGCAAUAUUACGCAAG :: -1.51
UACUAGCAAUAUUACGGUGU :: -2.65
UCCGAGCAAUAUUACGAGUG :: -1.34
AAGCAGCAAUAUUACGUAUU :: -1.43
CGGCAGCAAUAUUACGACGC :: -0.355
CCGGAGCAAUAUUACGCUAU :: -2.1
AUCGAGCAAUAUUACGCCUC :: -1.98
GAUAAGCAAUAUUACGUUGA :: -1.79
CCAAAGCAAUAUUACGAUGU :: -2.1
AGACAGCAAUAUUACGUUUG :: -1.22
UAGUAGCAAUAUUACGACCG :: 0.109
UGCCAGCAAUAUUACGCACU :: -0.315
ACUUAGCAAUAUUACGGGGG :: -1.96
GAGCAGCAAUAUUACGGAGC :: -0.471
CAACAGCAAUAUUACGUAUG :: -1.35
AGUAAGCAAUAUUACGUAGA :: -1.78
AAGCAGCAAUAUUACGUACU :: 0.172
UGCCAGCAAUAUUACGGUUU :: -0.237
CAUGAGCAAUAUUACGGUCA :: -2.57
GAUUAGCAAUAUUACGCGGC :: -2
GGUAAGCAAUAUUACGCUCU :: -2.16
CGCAAGCAAUAUUACGCCCG :: -1.93
UUACAGCAAUAUUACGUAGU :: -3.5
GAAUAGCAAUAUUACGCUAG :: -0.535
AGAUAGCAAUAUUACGUUGG :: -2.57
CAAUAGCAAUAUUACGCACA :: -1.4
UACUAGCAAUAUUACGGGCC :: -3.17
GAUUAGCAAUAUUACGGCCU :: -0.323
GCUAAGCAAUAUUACGUACG :: -1.13
UGUCAGCAAUAUUACGCAUU :: -0.133
CUAGAGCAAUAUUACGUCGA :: -2.34
CGAUAGCAAUAUUACGUACU :: -0.791
